test system: T7FFLuc control (T7 RNA polymerase driven firefly luciferase); test: cells; type: cell-based; settings: BSR-T7, read-out: EC50 (T7FFLuc control)
pEC50: −log10 of the molar value.
Catalogue of pEC50 values

Answered cases to consult:
- SMILES TEXT: "O=C(c1cccc(/C=C2\\SC(=O)N(Cc3cccc(F)c3)C2=O)c1)N1CCN(c2ccccn2)CC1"
  pEC50: "< 4.00"
- SMILES TEXT: "O=C(c1cccc(/C=C2\\SC(=O)N(Cc3ccccc3)C2=O)c1)N1CCN(c2ccccn2)CC1"
  pEC50: "< 4.00"

// moving on: another record for pEC50
q: Look up pEC50 for this compound: O=C(c1cccc(/C=C2\SC(=O)N(Cc3ccc(F)cc3)C2=O)c1)N1CCN(c2ccccn2)CC1
a: 4.31
